Reported pIC50 by item:
assay: Inhibition of HCV helicase; set-up: species or system Hepacivirus hominis
# log scale: pIC50 equals minus log10 of the concentration in mol/L

CCCn1nc2c(Br)c(Br)c(Br)c(Br)c2n1
5.24

Now consider the entry below.
The compound OCC1OC(n2nnc3cc(Cl)c(Cl)cc32)C(O)C1O (configuration not stated) showed pIC50 equal to 5.82

###

Reported Ratio CC50/EC50 by item:
assay: Selectivity index, ratio of CC50 for BHK-21 cells to EC50 for YFV; design: species or system Yellow fever virus
Just the number, please.

Nc1ccc(-n2nc3ccccc3n2)cc1
1.33
Oc1ccc(-n2nc3ccc(C(F)(F)F)cc3n2)cc1
3.82
Oc1ccc(-n2nc3cc(Cl)c(Cl)cc3n2)cc1
4.67

Now consider the entry below.
The compound Cc1cc(CCCOc2c(C)cc(-c3noc(C(F)(F)F)n3)cc2C)on1 [PLECONARIL] showed Ratio CC50/EC50 equal to 8750

###

experiment: Cytotoxicity against BHK cells assessed as cell viability after 48 to 96 hrs by MTT assay; type: cell-based, Mesocricetus auratus; conditions: hamster
Reported CC50 by item:

COc1ccc2nn(-c3ccc(OC(C)(C)C(=O)O)cc3)nc2c1
> 100 µM
Nc1nc2c(ncn2COCCO)c(=O)[nH]1
> 100 µM
COc1ccc(-n2nc3cc(Cl)c(Cl)cc3n2)cc1
> 100 µM
COc1ccc(-n2nc3ccc(C(F)(F)F)cc3n2)cc1
> 100 µM

The molecule C[C@@]1(O)[C@H](O)[C@@H](CO)O[C@H]1n1cnc2c(=O)[nH]c(N)nc21 showed CC50 equal to > 60 µM

The molecule COc1cc(/C=C/C(=O)OCCn2nc3ccccc3n2)cc(OC)c1OC showed CC50 equal to > 100 µM

The molecule COc1ccc2nn(-c3ccc(OCC(C)(C)C(=O)O)cc3)nc2c1 showed CC50 equal to 100 µM

The molecule COc1ccc(Cn2nc3cc(Cl)c(Cl)cc3n2)cc1 showed CC50 equal to > 100 µM

The molecule CC(CC(=O)O)n1nc2ccc3ccccc3c2n1 (stereo not drawn) showed CC50 equal to > 100 µM

###

Reported EC50 by item:
system: Human immunodeficiency virus 1; assay: Antiviral activity against HIV-1 infected in MT4 cells assessed as inhibition of virus-induced cytopathogenicity after 4 days by MTT assay; assay type: functional, organism-based; details: Human immunodeficiency virus 1, MT4, 96 h

# example entries with known answers
[O-][n+]1c2cc(C(F)(F)F)ccc2nn1-c1ccc(O)cc1
> 100 µM
COc1cc(C(=O)OCCCn2nc3ccccc3n2)cc(OC)c1OC
> 100 µM

Form field, EC50 with Human immunodeficiency virus 1, item CC(=O)Nc1ccc(-n2nc3ccccc3n2)cc1 : > 100 µM

###

Reported EC50 by item:
tested on: Coxsackievirus B5; assay: Antiviral activity against human CVB5 infected in african green monkey Vero76 cells assessed as inhibition of virus-induced cytopathogenicity after 3 days by plaque reduction assay; assay type: functional, organism-based; settings: Enterovirus B, Vero 76, 72 h
Express it in µM; write the number only.

Cc1ccc2nn(-c3ccc(OCCCC(C)(C)C(=O)O)cc3)nc2c1
0.15
COc1ccccc1N1CCN(CCCOc2ccc(-n3nc4ccc(C(F)(F)F)cc4n3)cc2)CC1
53

Now consider the entry below.
The compound Cc1ccc2nn(-c3ccc(OCC(C)(C)C(=O)O)cc3)nc2c1 showed EC50 equal to 5

###

assay: Cytotoxicity against human MT4 cells assessed as cell viability after 96 hrs by MTT assay; type: cell-based
testReadout: CC50 at 96 h

# example entries with known answers
CC(CC(=O)O)n1nnc2ccc([N+](=O)[O-])cc21 (centres undefined)
> 100 µM
CC(CC(=O)O)n1nc2ccc3ccccc3c2n1 (centres undefined)
> 100 µM
COc1ccc2nn(-c3ccc(OCCCC(C)(C)C(=O)O)cc3)nc2c1
28 µM
CC(C)(CCCOc1ccc(-n2nc3ccc(Cl)cc3n2)cc1)C(=O)O
51 µM
CN1CCN(CCn2nnc3ccccc32)CC1
> 100 µM
Oc1ccc(-n2nc3cc(Cl)c(Cl)cc3n2)cc1
47 µM
FC(F)(F)c1ccc2nn(Cc3ccccc3)nc2c1
> 100 µM
COc1cc(C(=O)OCCCn2nc3ccccc3n2)cc(OC)c1OC
> 100 µM
COc1cc(/C=C/C(=O)OCCn2nc3ccccc3n2)cc(OC)c1OC
≥ 100 µM
COc1ccc2nn(-c3ccc(OCC(C)(C)C(=O)O)cc3)nc2c1
≥ 100 µM

The compound CC(CC(=O)O)n1nc2ccc([N+](=O)[O-])cc2n1 (centres undefined) showed CC50 at 96 h equal to > 100 µM

The compound Clc1cc2nn(C3CCCCO3)nc2cc1Cl (centres undefined) showed CC50 at 96 h equal to > 100 µM

The compound COc1cc(C(=O)OCCCn2nnc3ccccc32)cc(OC)c1OC showed CC50 at 96 h equal to > 100 µM

###

assay: Selectivity index, ratio of CC50 for african green monkey Vero76 cells to EC50 for human RSV; parameters: species or system human respiratory syncytial virus, Vero 76
Reported Ratio CC50/EC50 by item:
Just the number, please.

# example entries with known answers
Oc1ccc(-n2nc3cc(Cl)c(Cl)cc3n2)cc1
6.25
Cc1ccc2nn(-c3ccc(OC(C)(C)C(=O)O)cc3)nc2c1
4.32
COc1c(C)c2c(c(O)c1C/C=C(\C)CCC(=O)O)C(=O)OC2 [MYCOPHENOLIC ACID]
33.3
CC(CC(=O)O)n1nc2c(Cl)c(Cl)c(Cl)c(Cl)c2n1 (configuration not stated)
3.12

Now consider the entry below.
The compound COc1ccc2nn(-c3ccc(OC(C)(C)C(=O)O)cc3)nc2c1 showed Ratio CC50/EC50 equal to 4.5

###

Reported CC50 at 96 h by item:
assay: Cytotoxicity against human MT4 cells assessed as cell viability after 96 hrs by MTT assay; format: cell-based

# example entries with known answers
COc1cc(/C=C/C(=O)OCCn2nnc3ccccc32)cc(OC)c1OC
45 µM
Clc1cc2nnn(C3CCCO3)c2cc1Cl (configuration not stated)
> 100 µM
O=C(Cn1nnc2ccccc21)N1CCOCC1
> 100 µM

The compound C#C[C@@]1(O)[C@H](O)[C@@H](CO)O[C@H]1n1ccc(N)nc1=O [2'-ETHYNYL-D-CYTIDINE] showed CC50 at 96 h equal to > 100 µM

The compound CN(C)c1cccc(C(=O)OCCn2nc3ccccc3n2)c1 showed CC50 at 96 h equal to > 100 µM

The compound COc1ccc(-n2nc3ccc(C(F)(F)F)cc3n2)cc1 showed CC50 at 96 h equal to > 100 µM

The compound COc1ccc(-n2nc3cc(Cl)c(Cl)cc3n2)cc1 showed CC50 at 96 h equal to > 100 µM

###

tested on: Bovine viral diarrhea virus 1; assay: Antiviral activity against BVDV infected in MDBK cells assessed as inhibition of virus-induced cytopathogenicity after 3 to 4 days by MTT assay; format: functional, organism-based; settings: Bovine viral diarrhea virus isolates and strains
pEC50: −log10 of the molar value.
Reported pEC50 by item:

The molecule Cc1ccc2nn(-c3ccc(OC(C)(C)C(=O)O)cc3)nc2c1 showed pEC50 equal to 4.05

The molecule Clc1c(Cl)c(Cl)c2nn(C3CCCO3)nc2c1Cl (stereo unspecified) showed pEC50 equal to 4.92

The molecule O=C(Cn1nc2ccccc2n1)N1CCOCC1 showed pEC50 equal to < 4.00

The molecule FC(F)(F)c1ccc2nn(Cc3ccc(Cl)cc3)nc2c1 showed pEC50 equal to < 4.00

The molecule COc1cc(/C=C/C(=O)OCCCn2nnc3ccccc32)cc(OC)c1OC showed pEC50 equal to < 4.00

The molecule Clc1cc2nn(C3CCCO3)nc2cc1Cl (stereo unspecified) showed pEC50 equal to < 4.00

###

test: Selectivity index, ratio of CC50 for african green monkey Vero76 cells to EC50 for human RSV; parameters: species or system human respiratory syncytial virus, Vero 76
One threshold, 3, splits the recorded Ratio CC50/EC50 values: lower ones are condition met, equal or higher ones are condition not met.

Look over these answered cases.
CC(C)(CCCOc1ccc(-n2nc3ccccc3n2)cc1)C(=O)O
condition not met
CC(C)(Oc1ccc(-n2nc3ccc(Cl)cc3n2)cc1)C(=O)O
condition met
CC(C)(CCCOc1ccc(-n2nc3ccc(Cl)cc3n2)cc1)C(=O)O
condition not met

query: Lab log: compare recorded Ratio CC50/EC50 with 3; is it strictly lower for Cc1ccc2nn(-c3ccc(OCC(C)(C)C(=O)O)cc3)nc2c1 ?
result: condition not met

query: Lab log: compare recorded Ratio CC50/EC50 with 3; is it strictly lower for COc1ccc2nn(-c3ccc(OCC(C)(C)C(=O)O)cc3)nc2c1 ?
result: condition not met

query: Lab log: compare recorded Ratio CC50/EC50 with 3; is it strictly lower for Oc1ccc(-n2nc3ccc(C(F)(F)F)cc3n2)cc1 ?
result: condition not met

query: Lab log: compare recorded Ratio CC50/EC50 with 3; is it strictly lower for CC(C)(COc1ccc(-n2nc3ccccc3n2)cc1)C(=O)O ?
result: condition met

query: Lab log: compare recorded Ratio CC50/EC50 with 3; is it strictly lower for CC(C)(COc1ccc(-n2nc3ccc(Cl)cc3n2)cc1)C(=O)O ?
result: condition not met

query: Lab log: compare recorded Ratio CC50/EC50 with 3; is it strictly lower for CC(C)(Oc1ccc(-n2nc3ccccc3n2)cc1)C(=O)O ?
result: condition met

query: Lab log: compare recorded Ratio CC50/EC50 with 3; is it strictly lower for O=c1cnn([C@@H]2O[C@H](CO)[C@@H](O)[C@H]2O)c(=O)[nH]1 [6-AZAURIDINE] ?
result: condition not met
